assay: in vitro; details: CD-1, mouse, s9, pH 7.4, Half-life
Measured attribute: half-life

Exercise: Looking for the measured half-life of CCCCCCCCCCCCCCCCOCCCOP(=O)(O)CO[C@H](CO)Cn1ccc(N)nc1=O , can you help?
Key: > 1.67 h

----------
experiment: in vitro; conditions: cynomolgus monkey, s9, pH 7.4, Half-life
Measured attribute: half-life
Report field: quantity (unit follows the number).

Exercise: Looking for the measured half-life of CCCCCCCCCCCCCCCCOCCCOP(=O)(O)CO[C@H](CO)Cn1ccc(N)nc1=O , can you help?
Key: 8 min

----------
assay: in vitro; conditions: both, CD-1, mouse, hepatocytes
Measured attribute: half-life (h)
The figure you give is taken to be in h; do not add the unit.

Exercise: Looking for the measured half-life of CCCCCCCCCCCCCCCCOCCCOP(=O)(O)CO[C@H](CO)Cn1ccc(N)nc1=O [CMX001, hexadecyloxypropyl ester of CDV] , can you help?
Key: 3.55

----------
test: in vitro; details: both, human, hepatocytes
Measured attribute: half-life (h)
The figure you give is taken to be in h; do not add the unit.

Exercise: Looking for the measured half-life of CCCCCCCCCCCCCCCCOCCCOP(=O)(O)CO[C@H](CO)Cn1ccc(N)nc1=O [CMX001, hexadecyloxypropyl ester of CDV] , can you help?
Key: 3.8

FYI, the data here is from paper PMC9628989.
